System: SF-295
protocol_details: NCI tumour cell line growth inhibition, 48 h
Activity calls are given as the source filed them. Rule as the data show it: active = GI50 up to about 1.1 µM and inactive = higher.
Overview of reported GI50 across a group of molecules:
reported_metric: GI50

molecule	target	reported_metric	result
CCOCc1c(C)cc(C)c(C2C(C(=O)c3ccccc3)N3c4ccccc4C=CC3C2(C#N)C(=O)OCC)c1C (stereo not drawn)	SF-295	GI50	53 µM (inactive)
CCOC(=O)c1nc2ccccc2nc1Nc1cc(OC)c(OC)c(OC)c1	SF-295	GI50	> 100 µM (inactive)
CC1=C(\C=C/C(C)=C/C=C/C(C)=C/C=C/C=C(C)\C=C\C=C(C)/C=C/C2=C(C)CCCC2(C)C)C(C)(C)CCC1	SF-295	GI50	> 100 µM (inactive)
CN(C)c1ncnc2c1ncn2CCn1cnc2c(N(C)C)ncnc21	SF-295	GI50	> 100 µM (inactive)
CN1CN(c2ccccc2)C2(CCN(CCCCCCF)CC2)C1=O	SF-295	GI50	82 µM (inactive)
COc1ccc(-n2/c(=N/C(=S)N(C)C)ss/c2=N\C(=S)N(C)C)cc1	SF-295	GI50	68.4 µM (inactive)
CCOC(=O)c1ccc(C(=O)/C(C#N)=C2\CCCN2)[nH]1	SF-295	GI50	> 100 µM (inactive)
O=C(O)CCc1nc2cc3ccccc3cc2[nH]c1=O	SF-295	GI50	> 100 µM (inactive)
COC(=O)CSC1CC(=O)c2c(Cl)sc(Cl)c21 (stereo not drawn)	SF-295	GI50	> 100 µM (inactive)
CC(C)(C)CNCCO	SF-295	GI50	> 100 µM (inactive)
COc1cc([C@@H]2c3cc4c(cc3[C@@H](/N=C/c3ccc(C(=O)O[C@H]5C[C@H]6OC[C@@]6(OC(C)=O)[C@H]6[C@H](OC(=O)c7ccccc7)[C@]7(O)C[C@H](OC(=O)[C@H](OC(=O)c8ccc(/C=N/[C@@H]9c%10cc%11c(cc%10[C@@H](c%10cc(OC)c(O)c(OC)c%10)[C@H]%10C(=O)OC[C@@H]%109)OCO%11)cc8)[C@@H](NC(=O)c8ccccc8)c8ccccc8)C(C)=C([C@@H](OC(C)=O)C(=O)[C@]56C)C7(C)C)cc3)C3COC(=O)C32)OCO4)cc(C)c1O (stereo partly drawn)	SF-295	GI50	5.07 µM (inactive)
Cc1ccc(-n2c(=O)c3nn4c(=O)n(-c5ccc(C)cc5)c(=O)c4nn3c2=O)cc1	SF-295	GI50	> 100 µM (inactive)
COC(=O)c1ccc(C)cc1C1CN=NC12Cc1c(C)cccc1C2=O (stereo not drawn)	SF-295	GI50	50.4 µM (inactive)

----------
Test system: SK-OV-3
protocol_details: NCI tumour cell line growth inhibition, 48 h
Calls of active or inactive are those of the source. Cut-off read from the data, not from the text of the source: active = GI50 up to about 1.1 µM and inactive = higher.

molecule	GI50
NNC(=O)CCC(=O)Nc1ccc(Cl)cc1Cl	> 100 µM (inactive)
O=c1[nH]n(Cc2ccccc2)c2ccc([N+](=O)[O-])cc12	15.7 µM (inactive)
C[C@@H](c1ccccc1)N1CO[C@@]2(C#Cc3ccc4c(c3)OCO4)CCC[C@@H]12	17.4 µM (inactive)
CC[C@@H](/C=C\CCC1(C[C@H](O)CCC=C(C)C)OCCO1)O[Si](C(C)C)(C(C)C)C(C)C	21.8 µM (inactive)
[O-][N+]1(CC[N+]2([O-])CCCCC2)CCCCC1	> 100 µM (inactive)
Clc1cc(-c2ccccc2)nc(Nc2nc3ccccc3[nH]2)n1	64.7 µM (inactive)
Cn1c(=O)c2c(no[n+]2[O-])n(C)c1=O	53.5 µM (inactive)
CSc1cccc(-n2c3nc(=O)n(C)c(=O)c-3nc3ccccc32)c1	35.3 µM (inactive)
COc1cc([C@@H]2c3cc4c(cc3[C@@H](/N=C/c3ccc(C(=O)O[C@H]5C[C@H]6OC[C@@]6(OC(C)=O)[C@H]6[C@H](OC(=O)c7ccccc7)[C@]7(O)C[C@H](OC(=O)[C@H](OC(=O)c8ccc(/C=N/[C@@H]9c%10cc%11c(cc%10[C@@H](c%10cc(OC)c(O)c(OC)c%10)[C@H]%10C(=O)OC[C@@H]%109)OCO%11)cc8)[C@@H](NC(=O)c8ccccc8)c8ccccc8)C(C)=C([C@@H](OC(C)=O)C(=O)[C@]56C)C7(C)C)cc3)C3COC(=O)C32)OCO4)cc(C)c1O (stereo partly drawn)	9.2 µM (inactive)
Cc1ccc(S(=O)(=O)NC(=O)NCCc2c[nH]cn2)cc1	> 100 µM (inactive)
CCCOP(=O)(OCCC)OC(C(F)(F)F)C(F)(F)F	> 100 µM (inactive)
C[N+]1(C)C/C(=C/c2ccc(F)cc2)C(=O)/C(=C\c2ccc(F)cc2)C1	> 100 µM (inactive)
Cc1ccc([S+]([O-])c2ccccc2[N+](=O)[O-])cc1 (stereo not drawn)	> 100 µM (inactive)
CC(C)OC(=O)c1cc(NC(=S)OC(C)C)ccc1Cl	37 µM (inactive)
Cc1ccc2c(c1C)CC1(Cc3c(ccc4c3CCC4)C1=O)C2=O (stereo not drawn)	> 100 µM (inactive)
O=Cc1cn(C(=O)c2ccccc2)c2ccccc12	> 100 µM (inactive)
C[P+](C)(C)c1ccccc1	> 100 µM (inactive)
Cc1ccc(-n2c(=O)c3nn4c(=O)n(-c5ccc(C)cc5)c(=O)c4nn3c2=O)cc1	> 100 µM (inactive)

----------
Form field: GI50 (one value per entry).
Tested on: LOX IMVI
protocol_details: NCI tumour cell line growth inhibition, 48 h
Active and inactive are the calls of the source. Cut-off read from the data, not from the text of the source: active = GI50 up to about 1.1 µM and inactive = higher.

molecule	GI50
CCOC(=O)C1C(c2ccc(OC)cc2)c2c(n[nH]c2O)CC1(C)O (stereo unspecified)	> 100 µM (inactive)
C=CCCC(=O)CC(O)(C(F)(F)F)C(F)(F)F	> 100 µM (inactive)
ClC1=NN=C(c2c[nH]c3ccccc23)CC1NCc1ccccc1 (stereo unspecified)	> 100 µM (inactive)
Oc1cc(-c2ccc(F)cc2)nc2ncccc12	45.5 µM (inactive)
O=C1c2c(ccc3c2CCCC3)CC12Cc1ccccc1C2	10.1 µM (inactive)
COc1ccc(Br)c(C(=O)N2CCc3ccccc32)c1N	93.1 µM (inactive)
CCn1cc(C(=O)O)c(=O)c2cc(F)c(N3CCN(CN4C(=O)/C(=N\c5ncc(Cc6cc(OC)c(OC)c(OC)c6)c(N)n5)c5cc(Cl)ccc54)CC3)cc21	> 100 µM (inactive)
CC1=C(\C=C/C(C)=C/C=C/C(C)=C/C=C/C=C(C)\C=C\C=C(C)/C=C/C2=C(C)CCCC2(C)C)C(C)(C)CCC1	> 100 µM (inactive)
CC1CCC2c3c([nH]c4ccccc34)C3C(=O)N(c4ccccc4)C(=O)C3C2C1 (stereo unspecified)	42.8 µM (inactive)
N#CCCN(c1ccc(/C=C2\N=C(Cc3ccccc3)OC2=O)cc1)S(=O)(=O)c1ccccc1	> 100 µM (inactive)
CCOC(=O)[C@H]1Nc2ccc(Cl)cc2[C@H]2OCC[C@@H]12	> 100 µM (inactive)
CC(C)S(=O)(=O)ON1C(=O)c2ccc(N(C)C)cc2C1=O	13.2 µM (inactive)
C/C(CC(=O)Nc1cccc([N+](=O)[O-])c1)=N\NC(=O)C[n+]1ccccc1	> 100 µM (inactive)
Cc1cccc(C2NC(=O)c3ccccc3N2)c1 (stereo unspecified)	> 27 µM (inactive)
O=S(=O)(N=S(c1ccc(Cl)cc1)c1ccc(Cl)cc1)c1ccccc1	> 100 µM (inactive)
Cc1cc(N(CCC#N)CCC#N)ccc1/N=N/c1cccc(C(=O)O)c1	> 100 µM (inactive)
COC(=O)C(Cc1nc2ccccc2nc1O)C(=O)C(=O)Nc1ccc(F)cc1 (stereo unspecified)	41.3 µM (inactive)
CCOC(=O)/C=C\[C@H]1OC(C)(C)O[C@H]1[C@H](O)[C@H]1COC(C)(C)O1	20 µM (inactive)
CN1Cc2cc(O)c(O)cc2C(O)C1 (stereo unspecified)	69.2 µM (inactive)
CN(C(=O)c1ccc(Cl)s1)C(=S)N(C)C(=O)c1ccc(Cl)s1	> 10 µM (inactive)
O=C(Nc1cc(Cl)ccc1Cl)c1cc2cccc(Br)c2oc1=O	> 100 µM (inactive)

----------
System: LOX IMVI
protocol_details: NCI tumour cell line growth inhibition, 48 h
Activity calls are given as the source filed them. Cut-off read from the data, not from the text of the source: active = GI50 up to about 1.1 µM and inactive = higher.
Classes used: active, inactive

compound	classification
c1ccc2c(c1)CCCN1CCc3ccccc3C21 (centres undefined)	inactive
CC(C)=CC(=O)OC1C2C(C)C(=O)OC2C(O)C(C)C2C=CC(=O)C21C (centres undefined)	active
CC(=O)OCC(C)(COC(C)=O)N1C(=O)C2C3c4ccccc4C(c4ccccc43)C2C1=O (centres undefined)	inactive
COc1ccc2c(c1)CCc1c(C(C)=O)c3ccccc3n1C2	inactive
CC1OC2/C=C\CC(O)C(C)(C)C3CCC(C)C4(O3)O[B-]35OC(C(=O)OC1C2)C1(OC(CCC1C)C(C)(C)C(O)C/C=C\C1CC(OC(=O)C4O3)C(C)O1)O5 (centres undefined)	inactive
COC(=O)c1csc([C@@H](OC(=O)[C@H](C)[C@H](CCCC(C)(Cl)Cl)OC(=O)c2csc([C@H](O)CO)n2)C(C)C)n1	inactive
Cc1ccc(S(=O)(=O)N/N=C(\c2nc3ccc(Cl)cc3[nH]c2=O)C(O)c2ccco2)cc1 (centres undefined)	inactive
O=S(=O)(O)CCSSCCS(=O)(=O)O	inactive
CCCCCC1=C2C(c3ccc(OC)cc3)=C(N)C(c3ccc(OC)cc3)=C3NC(=O)C(C=C1)C32 (centres undefined)	inactive

The measurements presented in this section are drawn from ChEMBL document CHEMBL1201862.
